target: DLG1_3, Q12959; assay: holdup assay; parameters: key: below the threshold = too weak to quantify, mostly under pKd 3.1 to 4; conditions: plain residues with an end cap or a label only (N-terminal biotin on a linker: ahx)
Sequence (Q12959 457-571): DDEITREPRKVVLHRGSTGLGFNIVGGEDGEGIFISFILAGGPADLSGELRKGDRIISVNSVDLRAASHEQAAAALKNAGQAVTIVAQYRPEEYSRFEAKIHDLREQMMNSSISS
READOUT: pKd

Recorded pKd, per entry:
Just so you know, measured pKd for PKMKLNETSF [SHKBP1, Q8TBC3] came out at below the threshold

Just so you know, measured pKd for AKPQPVDSWV [ARVCF, O00192] came out at below the threshold

Just so you know, measured pKd for SKKNELFSNL [NHERF1, O14745] came out at below the threshold

Just so you know, measured pKd for ADENEQVSAV [RAPGEF6, Q8TEU7] came out at below the threshold

Just so you know, measured pKd for VNENQKEYFF [CNTNAP4, Q9C0A0] came out at below the threshold

---
Just so you know, measured pKd for HSATSVHTSV [MTMR1, Q13613] came out at 3.56

Just so you know, measured pKd for SAPATLSSRA [PDLIM2, Q96JY6] came out at below the threshold
